Cited source for all entries: the supplement of paper PMC12645437

# testSystem: T1, CRBN, Q96SW2;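 further: pooled lentiviral library of zinc finger degron-EGFP fusions in mCherry-positive Jurkat cells, FACS-sorted after compound exposure, with degron abundance counted by next-generation sequencing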
# T1 chain: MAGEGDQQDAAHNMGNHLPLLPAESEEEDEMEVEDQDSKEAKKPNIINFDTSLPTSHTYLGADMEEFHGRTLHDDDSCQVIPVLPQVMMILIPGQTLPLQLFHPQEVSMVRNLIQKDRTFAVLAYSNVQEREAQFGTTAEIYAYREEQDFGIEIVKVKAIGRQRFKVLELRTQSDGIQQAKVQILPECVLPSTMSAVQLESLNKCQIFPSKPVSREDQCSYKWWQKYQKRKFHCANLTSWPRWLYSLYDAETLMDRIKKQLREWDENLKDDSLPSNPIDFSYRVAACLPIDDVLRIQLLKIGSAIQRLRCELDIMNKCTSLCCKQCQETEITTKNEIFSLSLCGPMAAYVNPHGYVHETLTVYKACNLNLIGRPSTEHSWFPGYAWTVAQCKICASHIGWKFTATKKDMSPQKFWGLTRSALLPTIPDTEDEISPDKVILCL
# method: log2 fold change of degron read counts, EGFP-low vs EGFP+ sorted cells (limma voom), compound-induced degradation; higher = more compound-induced degradation of the degron-EGFP fusion; degrons are variants of IKZF1/3 zinc finger 2; compound dose not given here
# conditionNotes: Jurkat; 18 h; compound: thalidomide
The full ranking holds about 8,300 sequences; the median of “log2 fold change of degron read counts, EGFP-low vs EGFP+ sorted cells (limma voom), compound-induced degradation” is about -1.1, and the highest 2% start at about 3.2. This is one part of a sample in which the highest values are shown more often than they occur.
Rule: log2 fold change of degron read counts under 1 gives NOT MET, otherwise MET.

Q: Hello, I need to know if FLCPVCGATFTQKGNLLRHIKL [46F_47L_49P_50V_52G_53A_54T_55F_67L_, Q9UKT9] has measured log2 fold change of degron read counts not below 1. Thanks!
A: MET

Q: Hello, I need to know if FGCPVCGATFTQKGNLLRHIKL [46F_47G_49P_50V_52G_53A_54T_55F_67L_, Q9UKT9] has measured log2 fold change of degron read counts not below 1. Thanks!
A: MET

Q: Hello, I need to know if FKCPVCGATFTQKGNLLRHIKL [46F_47K_49P_50V_52G_53A_54T_55F_67L_, Q9UKT9] has measured log2 fold change of degron read counts not below 1. Thanks!
A: NOT MET

Q: Hello, I need to know if FWCPVCGATFTQKGNLLRHIKL [46F_47W_49P_50V_52G_53A_54T_55F_67L_, Q9UKT9] has measured log2 fold change of degron read counts not below 1. Thanks!
A: NOT MET

Q: Hello, I need to know if FDCPVCGATFTQKGNLLRHIKL [46F_47D_49P_50V_52G_53A_54T_55F_67L_, Q9UKT9] has measured log2 fold change of degron read counts not below 1. Thanks!
A: MET

Q: Hello, I need to know if FNCDVCGAFFTQKGNLLRHIKL [46F_47N_49D_50V_52G_53A_54F_55F_67L_, Q9UKT9] has measured log2 fold change of degron read counts not below 1. Thanks!
A: NOT MET

Q: Hello, I need to know if FQCPVCGATFTQKGNLLRHIKL [46F_47Q_49P_50V_52G_53A_54T_55F_67L_, Q9UKT9] has measured log2 fold change of degron read counts not below 1. Thanks!
A: MET
